# PROCEDURE_SUMMARY: Time dependent organ distribution of CPT after intramuscular administration
# Assay type: in vivo
# ASSAY_CONDITIONS: mouse, 7 µg/mouse, Lung, 30 min, mice, i.m. CPT in DMSO/saline suspension, read-out: CPT in tissue
# Description: The mobile phase was 30% acetonitrile and 70% of 0.1% glacial acetic acid. CPT was detected using the Waters 470 scanning fluorescence detector set to an excitation wavelength of 370 nm and an emission wavelength of 440 nm. […] The data were analyzed with the Waters Millenium software. Drug disappeared very slowly from the site of intramuscular injection in the first 12 hours, with only very small concentrations detected in the liver and virtually no drug present at other sites. […]
MEASUREMENT_NAME: concentration at 30 min (ng/g)
Numbers only here, please. The scale is ng/g.

Task item: // query concentration at 30 min value for entry CC[C@@]1(O)C(=O)OCc2c1cc1n(c2=O)Cc2cc3ccccc3nc2-1
Reply: 4

----------
# PROCEDURE_SUMMARY: Time dependent organ distribution of CPT after intramuscular administration
# Format: in vivo
# ASSAY_CONDITIONS: mouse, 7 μg per mouse, Kidney, 30 min, mice, i.m. CPT in DMSO/saline suspension, read-out: CPT in tissue
MEASUREMENT_NAME: concentration at 30 min (ng/g)
Numbers only here, please. The scale is ng/g.

Task item: // query concentration at 30 min value for entry CC[C@@]1(O)C(=O)OCc2c1cc1n(c2=O)Cc2cc3ccccc3nc2-1 [CPT, 20-S-camptothecin]
Reply: 40

----------
# PROCEDURE_SUMMARY: Time dependent organ distribution of CPT after intramuscular administration
# Format: in vivo
# ASSAY_CONDITIONS: mouse, 7 µg/mouse, Liver, 60 min, mice, i.m. CPT in DMSO/saline suspension, read-out: CPT in tissue
MEASUREMENT_NAME: concentration at 60 min (ng/g)
Numbers only here, please. The scale is ng/g.

Task item: // query concentration at 60 min value for entry CC[C@@]1(O)C(=O)OCc2c1cc1n(c2=O)Cc2cc3ccccc3nc2-1
Reply: 136

----------
# PROCEDURE_SUMMARY: Time dependent organ distribution of CPT after intranasal administration of DLPC liposomes
# Format: in vivo
# ASSAY_CONDITIONS: whole blood, other: intranasal instillation; Blood, 15 min; mice, intranasal DLPC liposomal CPT 7 μg per mouse; read-out: CPT in tissue
MEASUREMENT_NAME: concentration at 15 min (ng/g)
Numbers only here, please. The scale is ng/g.

Task item: // query concentration at 15 min value for entry CC[C@@]1(O)C(=O)OCc2c1cc1n(c2=O)Cc2cc3ccccc3nc2-1
Reply: 53

----------
# PROCEDURE_SUMMARY: Time dependent organ distribution of CPT after intranasal administration of DLPC liposomes
# Format: in vivo
# ASSAY_CONDITIONS: other: intranasal instillation; Spleen, 30 min; mice, intranasal DLPC liposomal CPT 7 μg per mouse; read-out: CPT in tissue
MEASUREMENT_NAME: concentration at 30 min (ng/g)
Numbers only here, please. The scale is ng/g.

Task item: // query concentration at 30 min value for entry CC[C@@]1(O)C(=O)OCc2c1cc1n(c2=O)Cc2cc3ccccc3nc2-1
Reply: 21

----------
# PROCEDURE_SUMMARY: Time dependent organ distribution of CPT after intranasal administration of DLPC liposomes
# Format: in vivo
# ASSAY_CONDITIONS: other: intranasal instillation; Liver, 0 min; mice, intranasal DLPC liposomal CPT 7 μg per mouse; read-out: CPT in tissue
MEASUREMENT_NAME: concentration at 0 min
Reply with the number and its unit after it.

Task item: // query concentration at 0 min value for entry CC[C@@]1(O)C(=O)OCc2c1cc1n(c2=O)Cc2cc3ccccc3nc2-1
Reply: 651 ng/g
